Measured inhibition at 33 µM by item
# study target: HCV-NS5b (Hepatitis C virus genotype 1b)
# Construct: (His)6 (C); made in house; host or cells: XL-1 cells (E. coli), IPTG-inducible plasmid, nickel-NTA purification
# measurement protocol: HCV-NS5b enzyme assay (incorporation of radiolabeled UTP)
# Assay type: biochemical
# applied conditions: enzyme inhibition at compound concentration of 33 uM
Field format: number, assumed %, no unit text.

As a guide, the following entries are already answered.
molecule smiles	observed result
COCCOc1ccc(-c2ccccc2)c(-c2ccc3cc(-c4nc5cc(C(=O)O)ccc5n4C4CCCCC4)ccc3n2)c1	97.9
NC(=O)C[C@H](NC(=O)c1ccc2c(c1)nc(-c1ccc3nc(-c4ccccc4)cnc3c1)n2C1CCCCC1)C(=O)O	76

Given `CCC(CC)n1c(-c2ccc3nc(-c4cc(OC)ccc4-c4ccc(Cl)cc4)ccc3c2)nc2cc(C(=O)O)ccc21` , state its recorded inhibition at 33 µM.
102

* * *

Measured inhibition at 33 µM by item
# study target: HCV-NS5b (Hepatitis C virus genotype 1b, UniProt Q9WMX2)
# Construct: (His)6 (C); made in house; host or cells: XL-1 cells (E. coli), IPTG-inducible plasmid, nickel-NTA purification
# measurement protocol: HCV-NS5b enzyme assay (incorporation of radiolabeled UTP)
# Assay type: biochemical
# applied conditions: enzyme inhibition at compound concentration of 33 uM
Field format: number, assumed %, no unit text.

molecule smiles	units symbol	observed result
O=C(O)CNC(=O)c1ccc2c(c1)nc(-c1ccc3nc(-c4ccccc4)cnc3c1)n2C1CCCCC1	%	83
Cc1ccc2cc(-c3ccc4cc(-c5nc6cc(C(=O)O)ccc6n5C5CCCCC5)ccc4n3)ccc2c1	%	99.5
Nc1c(Cl)cc(-c2ccc3cc(-c4nc5cc(C(=O)O)ccc5n4C4CCCCC4)ccc3n2)cc1Cl	%	98.4

Given `O=C(O)c1ccc2[nH]c(-c3ccc4nc(-c5ccccc5-c5ccc(Cl)cc5)ccc4c3)nc2c1` , state its recorded inhibition at 33 µM.
67.3

Param item: `O=C(O)c1ccc2c(c1)nc(-c1ccc3nc(-c4ccc(O)cc4O)ccc3c1)n2C1CCCCC1`
98.6

Param item: `c1ccc(-c2cnc3cc(-c4nc5cc(-c6nn[nH]n6)ccc5n4C4CCCCC4)ccc3n2)cc1`
97

Param item: `O=C(O)c1ccc2c(c1)nc(-c1ccc3nc(-c4ccc(-c5ccccc5)cc4)ccc3c1)n2C1CCCCC1`
79.9

* * *

Measured inhibition at 33 µM by item
# study target: HCV-NS5b (Hepatitis C virus genotype 1b)
# Construct: (His)6 (C); made in house; host or cells: XL-1 cells (E. coli), IPTG-inducible plasmid, nickel-NTA purification
# measurement protocol: HCV-NS5b enzyme assay (incorporation of radiolabeled UTP)
# Type: biochemical
# applied conditions: enzyme inhibition at compound concentration of 33 uM
Field format: number, assumed %, no unit text.

molecule	units symbol	inhibition at 33 µM
Cn1c2ccc(Cl)cc2c2cc(-c3ccc4cc(-c5nc6cc(C(=O)O)ccc6n5C5CCCCC5)ccc4n3)ccc21 [Compound 463]	%	96

Given Nc1ccc(-c2ccc3cc(-c4nc5cc(C(=O)O)ccc5n4C4CCCCC4)ccc3n2)cc1Br [Compound 372] , state its recorded inhibition at 33 µM.
98.1

Param item: Cc1ccc(-c2nc3ccc(-c4nc5cc(C(=O)O)ccc5n4C4CCCCC4)cc3nc2-c2ccc(C)cc2)cc1 [Compound 389]
99.9

Each recorded value in this set is attributed to patent US7511145B2.
